This section presents compounds with their documented IC50 values.
system: CEM cells HIV-1 protection, formazan growth assay; test: NCI AIDS Antiviral Assay; details: measured here: growth of uninfected CEM cells

# Compound, IC50
rows = [
    ("CC1=NOC(=O)/C1=C/c1ccccc1O", "> 178 µM"),
    ("CC(C)N1C(=O)N(Cl)C2C1N(Cl)C(=O)N2Cl (stereo unspecified)", "> 200 µM"),
    ("CC(C)(C)/C(O)=C\\c1nc2cc(C(F)(F)F)ccc2[nH]c1=O", "> 200 µM"),
    ("N#CC1=CNc2sccc2S1(=O)=O", "> 200 µM"),
    ("C(=Nc1ccc(SSc2ccc(N=C=C(c3ccccc3)c3ccccc3)cc2)cc1)=C(c1ccccc1)c1ccccc1", "> 200 µM"),
    ("Cc1ccc(S(=O)(=O)N/N=c2\\c(C)c(C3=NS(=O)(=O)c4cc(S(N)(=O)=O)c(Cl)cc4N3)oc3c(Cl)cc(Cl)cc23)cc1", "> 69.2 µM"),
    ("C[C@]12CCC3[C@@H](CC[C@@H]4c5nonc5CC[C@]34C)C1CC[C@@H]2O (stereo partly specified)", "> 214 µM"),
    ("Cc1ccnc2c1ccc1nc3ccccc3n12", "> 200 µM"),
    ("O=C1OC(=O)C2C1CC1C(=O)OC(=O)C12 (stereo unspecified)", "> 1200 µM"),
    ("COC1CC(n2cnc3c(N)ncnc32)OC1CO (stereo unspecified)", "> 200 µM"),
    ("S=C(Nc1cccc(Cl)c1)Nc1ccccn1", "> 200 µM"),
]

###

test system: CEM cells HIV-1 protection, formazan growth assay; assay: NCI AIDS Antiviral Assay; conditions: measured here: growth of uninfected CEM cells
This section presents molecules with their documented IC50 values.

# Molecule, IC50
records = [
    ("CSc1nc(C)cc(=O)n1C1OC(COC(C)=O)C(OC(C)=O)C(OC(C)=O)C1OC(C)=O (stereo not drawn)", "> 200 µM"),
    ("CN(C)CC1(C)Cc2sccc2C1=O (stereo not drawn)", "> 200 µM"),
    ("CCCCNC(=S)/N=C/c1c(O)c2ccccc2[nH]c1=O", "> 200 µM"),
    ("CC(C)(C)C(=O)C(C(=O)c1ccccc1)C(=O)C(C)(C)C", "> 200 µM"),
    ("CCN(CC)CCCN1CCc2c([nH]c3ccccc23)C1c1cccnc1 (stereo not drawn)", "> 186 µM"),
    ("CCOc1ccc(NC(=O)/C(=N\\N)C(C(=O)OC)c2nc3ccc(Cl)cc3[nH]c2=O)cc1 (stereo not drawn)", "> 38.9 µM"),
    ("NC(CCCCNCC(N)C(=O)O)C(=O)O (stereo not drawn)", "> 933 µM"),
    ("O=C(c1ccc(S(=O)(=O)c2ccccc2)cc1)c1ccc(S(=O)(=O)c2ccccc2)cc1", "> 200 µM"),
    ("NNc1ncnc2c1ncn2C1OC(CO)CC1F (stereo not drawn)", "> 148 µM"),
    ("CCOC(=O)C1=CC(C)(C(=O)OCC)Nc2c(nc(N)[nH]c2=O)N1 (stereo not drawn)", "> 200 µM"),
    ("NS(=O)(=O)c1ccc(NC2=CC(=O)C(=O)c3ccccc32)cc1", "> 30.2 µM"),
    ("CC1(Br)C2c3ccccc3C(c3ccccc32)C1(C)C(Cl)(Cl)Cl (stereo not drawn)", "> 16.6 µM"),
    ("CC(C)N1CC2CN(Cc3ccccc3)CC(C1)C2=O", "> 479 µM"),
]

Data origin, for the record: PubChem BioAssay AID179
